Target: human 5-HT2C receptor (Homo sapiens, UniProt P28335)
Assay: 5-HT2C receptor-stimulated calcium mobilization (FLIPR) in CHO cells
Format: cell-based
Details: CHO, read-out: 5-HT2C Function Emax (%), percentage of the response observed with a maximally effective concentration of 5-HT
observedProperty: Emax (%)
Express it in %; write the number only.

IN: Please look up its Emax: COc1cc2c(c(-c3ccccc3Cl)c1)OC(CN)C2 (racemic)
OUT: 100

IN: Please look up its Emax: CNCC1Cc2cc(F)cc(-c3ccc(Cl)cc3Cl)c2O1 (single isomer, unassigned; (-)) [Example 446]
OUT: 70

IN: Please look up its Emax: CNCC1Cc2cc(F)cc(-c3c(Cl)cccc3Cl)c2O1 (racemic)
OUT: 90

IN: Please look up its Emax: CNCC1Cc2cc(F)cc(-c3ccc(Cl)cc3Cl)c2O1 (racemic) [Example 445]
OUT: 90

IN: Please look up its Emax: NCC1Cc2cc(F)cc(-c3ccc(Cl)cc3Cl)c2O1 (racemic)
OUT: 100

---

I'd be grateful if you could share measured EC50 for these entries.
Target: human 5-HT2C receptor (Homo sapiens, UniProt P28335)
Test: 5-HT2C receptor-stimulated calcium mobilization (FLIPR) in CHO cells
Type: cell-based
Conditions: calcium mobilization, CHO cells stably expressing human 5-HT2C; read-out: 5-HT2C Function EC50
Express it in nM; write the number only.

IN: Request: EC50, test system human 5-HT2C receptor (Homo sapiens, UniProt P28335), entry NCC1Cc2cc(F)cc(-c3cc(Cl)ccc3Cl)c2O1 (racemic) [Example 221]
OUT: 2

IN: Request: EC50, test system human 5-HT2C receptor (Homo sapiens, UniProt P28335), entry NCC1Cc2cc(C(F)(F)F)cc(-c3cc(F)ccc3F)c2O1 (racemic) [Example 336]
OUT: 123

IN: Request: EC50, test system human 5-HT2C receptor (Homo sapiens, UniProt P28335), entry COc1cccc(-c2cc(Cl)cc3c2OC(CN)C3)c1OC (racemic) [Example 249]
OUT: 21

IN: Request: EC50, test system human 5-HT2C receptor (Homo sapiens, UniProt P28335), entry CNCC1Cc2cccc(-c3cc(Cl)ccc3OC)c2O1 (racemic) [Example 430]
OUT: 448

IN: Request: EC50, test system human 5-HT2C receptor (Homo sapiens, UniProt P28335), entry NCC1Cc2cccc(-c3cccc(Cl)c3)c2O1 (racemic) [Example 65]
OUT: 187

IN: Request: EC50, test system human 5-HT2C receptor (Homo sapiens, UniProt P28335), entry CNCC1Cc2cc(C)cc(-c3cc(Cl)ccc3Cl)c2O1 (racemic) [Example 486]
OUT: 5

IN: Request: EC50, test system human 5-HT2C receptor (Homo sapiens, UniProt P28335), entry CNCC1Cc2cc(OC)cc(-c3c(C)cccc3C)c2O1 (single isomer, unassigned; (+)) [Example 561]
OUT: 21

IN: Request: EC50, test system human 5-HT2C receptor (Homo sapiens, UniProt P28335), entry CNCC1Cc2cc(Cl)cc(-c3ccccc3F)c2O1 (racemic) [Example 462]
OUT: 79

IN: Request: EC50, test system human 5-HT2C receptor (Homo sapiens, UniProt P28335), entry NCC1Cc2cccc(-c3cccc(F)c3)c2O1 (racemic) [Example 64]
OUT: 70

---

I'd be grateful if you could share measured melting point for these entries.
Structures can show the parent of a compound that is named as a salt.

IN: Please look up its melting point: COc1cccc(-c2cccc3c2OC(CN)C3)c1 (single isomer, unassigned; (+)) (as salt: hydrochloride) [Example 133]
OUT: 156 to 158 °C

IN: Please look up its melting point: Cc1ccccc1-c1cccc2c1CC(CN)O2 (single isomer, unassigned; (+)) (as salt: hydrobromid) [Example 5]
OUT: 232 to 233 °C

IN: Please look up its melting point: Cc1cccc(-c2cccc3c2OC(CN)C3)c1C (racemic) (as salt: hydrochloride)
OUT: > 225 °C

IN: Please look up its melting point: NCC1Cc2cccc(-c3ccc(Cl)cc3)c2O1 (single isomer, unassigned; (+)) (as salt: hydrobromid) [Example 77]
OUT: 229 to 231 °C

IN: Please look up its melting point: NCC1Cc2cccc(-c3ccccc3C(F)(F)F)c2O1 (single isomer, unassigned; (-)) (as salt: hydrochloride) [Example 54]
OUT: 109 to 111 °C

IN: Please look up its melting point: NCC1Cc2cccc(-c3c(Cl)cccc3Cl)c2O1 (single isomer, unassigned; (-)) (as salt: hydrochloride) [Example 141]
OUT: 207 to 209 °C

IN: Please look up its melting point: COc1cc(Cl)cc2c1OC(CN)C2 (racemic) (as salt: hydrochloride)
OUT: 195 to 198 °C

---

Molecular target: human 5-hydroxytryptamine-2C (h5-HT2C) receptor (Homo sapiens)
Construct: expressed in transfected cells; host or cells: CHO (Chinese Hamster Ovary) cells; membranes
Sequence (P28335 33-458): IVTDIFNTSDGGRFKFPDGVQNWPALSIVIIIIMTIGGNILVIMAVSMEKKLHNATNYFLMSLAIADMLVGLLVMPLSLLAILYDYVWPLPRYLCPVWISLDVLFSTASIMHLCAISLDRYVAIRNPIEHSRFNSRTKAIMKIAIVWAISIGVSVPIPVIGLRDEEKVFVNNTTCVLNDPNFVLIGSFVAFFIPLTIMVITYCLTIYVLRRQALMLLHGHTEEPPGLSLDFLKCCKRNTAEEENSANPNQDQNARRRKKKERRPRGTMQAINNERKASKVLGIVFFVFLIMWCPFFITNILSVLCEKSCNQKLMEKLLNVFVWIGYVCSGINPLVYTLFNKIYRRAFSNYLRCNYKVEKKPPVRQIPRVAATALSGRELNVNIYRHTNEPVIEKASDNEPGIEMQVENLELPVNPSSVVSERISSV
Test: [125I]DOI binding to membranes of CHO cells expressing the human 5-HT2C receptor
Details: [125I]DOI radioligand, CHO cell membranes, room temperature 60 min; read-out: 5-HT2C Affinity Ki
pKi: −log10 of the molar value.
Response key: yes (1) means pKi >= 7; no (0) means pKi < 7.

IN: Check this compound for pKi at or above 7: NCC1Cc2cccc(-c3ccccc3Cl)c2O1 (racemic) [Example 60]
OUT: yes (1)

IN: Check this compound for pKi at or above 7: NCC1Cc2cc(Cl)cc(-c3c(Cl)cccc3Cl)c2O1 (racemic) [Example 263]
OUT: yes (1)

IN: Check this compound for pKi at or above 7: NCC1Cc2ccc(-c3ccccc3)cc2O1 (racemic) [Example 31]
OUT: no (0)

IN: Check this compound for pKi at or above 7: Cc1ccc(Nc2cccc3c2OC(CN)C3)c(C)c1 (racemic) [Example 180]
OUT: no (0)

IN: Check this compound for pKi at or above 7: NCC1Cc2cc(Cl)cc(-c3cc(Cl)ccc3Cl)c2O1 (racemic) [Example 256]
OUT: yes (1)

---

Target: human 5-HT2C receptor (Homo sapiens, UniProt P28335)
Assay: 5-HT2C receptor-stimulated calcium mobilization (FLIPR) in CHO cells;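 also: Fluo-3-AM fluorescence read on FLIPR every 1 s, agonist added after 10 baseline reads, response taken as peak minus lowest raw fluorescence count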
Type: cell-based
Settings: CHO, percentage of the response observed with a maximally effective concentration of 5-HT; read-out: 5-HT2C Function Emax (%)
Please use fulfilled for Emax under 90% and not fulfilled for everything else, ties included.

IN: Dear reviewer, please state whether Cc1cc2c(c(-c3cccc(Cl)c3)c1)OC(CN)C2 (racemic) has Emax strictly beneath 90%.
OUT: not fulfilled

IN: Dear reviewer, please state whether CNCC1Cc2cc(Cl)cc(-c3cc(F)ccc3F)c2O1 (racemic) has Emax strictly beneath 90%.
OUT: fulfilled

IN: Dear reviewer, please state whether CC(C)c1ccccc1-c1cccc2c1OC(CN)C2 (racemic) [Example 61] has Emax strictly beneath 90%.
OUT: fulfilled

IN: Dear reviewer, please state whether Cc1ccccc1-c1cc(F)cc2c1OC(CN)C2 (racemic) has Emax strictly beneath 90%.
OUT: not fulfilled

IN: Dear reviewer, please state whether COc1ccc(OC)c(-c2cccc3c2OC(CN)C3)c1 (racemic) has Emax strictly beneath 90%.
OUT: not fulfilled

IN: Dear reviewer, please state whether NCC1Cc2cccc(-c3ccccc3C(F)(F)F)c2O1 (racemic) [Example 53] has Emax strictly beneath 90%.
OUT: fulfilled

---

I'd be grateful if you could share measured melting point for these entries.
Counter-ions that a name gives are not always drawn.

IN: Please look up its melting point: CC(C)(C)c1cccc2c1OC(CN)C2 (single isomer, unassigned; (+)) (as salt: hydrochloride) [Example 26]
OUT: 177 to 179 °C

IN: Please look up its melting point: NCC1Cc2cccc(-c3ccccc3Cl)c2O1 (single isomer, unassigned; (-)) (as salt: hydrochloride) [Example 129]
OUT: 186 to 188 °C

IN: Please look up its melting point: NCC1Cc2cccc(C3CCCC3)c2O1 (single isomer, unassigned; (-)) (as salt: hydrobromid)
OUT: 208 to 211 °C

IN: Please look up its melting point: NCC1Cc2cccc(-c3cc(C(F)(F)F)cc(C(F)(F)F)c3)c2O1 (racemic) (as salt: hydrochloride)
OUT: 174 to 175 °C (dec.)

IN: Please look up its melting point: CC(C)c1cccc2c1OC(CN)C2 (single isomer, unassigned; (-)) (as salt: hydrochloride) [Example 19]
OUT: 176 to 178 °C

IN: Please look up its melting point: NCC1Cc2cc(Cl)cc(-c3ccsc3)c2O1 (single isomer, unassigned; (-)) (as salt: hydrobromid) [Example 91]
OUT: 277 to 280 °C

Values compiled from patent US7435837B2.
